B1: TPR t1 (parent)
chain: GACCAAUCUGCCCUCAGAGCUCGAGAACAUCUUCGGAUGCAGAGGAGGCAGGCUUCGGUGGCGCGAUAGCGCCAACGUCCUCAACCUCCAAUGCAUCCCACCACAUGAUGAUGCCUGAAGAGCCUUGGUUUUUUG

# Variants of: B1
# Measurement protocol: polymerase ribozyme fitness, log enrichment relative to wild type (log ratio); higher = more active; in vitro selection for triplet polymerase activity
Outcome measure: polymerase ribozyme fitness (log ratio)
Reply with the value as a number alone.

// worked examples, polymerase ribozyme fitness (log ratio) included
| Variant code | polymerase ribozyme fitness (log ratio) |
| --- | --- |
| C8G C115A U130G | 1.67 |
| C11G C13G A111C A121G | 0.62 |
| G71C G93A | -1.77 |
| U7C C8G | -0.253 |
| G39U U54A | -1.76 |

Then there is this variant:
Consider A26G C94G . Its measured polymerase ribozyme fitness (log ratio) is -3.05
